- target.entity: PDGFRα (Homo sapiens, UniProt P16234)
- Sequence (P16234 24-1089): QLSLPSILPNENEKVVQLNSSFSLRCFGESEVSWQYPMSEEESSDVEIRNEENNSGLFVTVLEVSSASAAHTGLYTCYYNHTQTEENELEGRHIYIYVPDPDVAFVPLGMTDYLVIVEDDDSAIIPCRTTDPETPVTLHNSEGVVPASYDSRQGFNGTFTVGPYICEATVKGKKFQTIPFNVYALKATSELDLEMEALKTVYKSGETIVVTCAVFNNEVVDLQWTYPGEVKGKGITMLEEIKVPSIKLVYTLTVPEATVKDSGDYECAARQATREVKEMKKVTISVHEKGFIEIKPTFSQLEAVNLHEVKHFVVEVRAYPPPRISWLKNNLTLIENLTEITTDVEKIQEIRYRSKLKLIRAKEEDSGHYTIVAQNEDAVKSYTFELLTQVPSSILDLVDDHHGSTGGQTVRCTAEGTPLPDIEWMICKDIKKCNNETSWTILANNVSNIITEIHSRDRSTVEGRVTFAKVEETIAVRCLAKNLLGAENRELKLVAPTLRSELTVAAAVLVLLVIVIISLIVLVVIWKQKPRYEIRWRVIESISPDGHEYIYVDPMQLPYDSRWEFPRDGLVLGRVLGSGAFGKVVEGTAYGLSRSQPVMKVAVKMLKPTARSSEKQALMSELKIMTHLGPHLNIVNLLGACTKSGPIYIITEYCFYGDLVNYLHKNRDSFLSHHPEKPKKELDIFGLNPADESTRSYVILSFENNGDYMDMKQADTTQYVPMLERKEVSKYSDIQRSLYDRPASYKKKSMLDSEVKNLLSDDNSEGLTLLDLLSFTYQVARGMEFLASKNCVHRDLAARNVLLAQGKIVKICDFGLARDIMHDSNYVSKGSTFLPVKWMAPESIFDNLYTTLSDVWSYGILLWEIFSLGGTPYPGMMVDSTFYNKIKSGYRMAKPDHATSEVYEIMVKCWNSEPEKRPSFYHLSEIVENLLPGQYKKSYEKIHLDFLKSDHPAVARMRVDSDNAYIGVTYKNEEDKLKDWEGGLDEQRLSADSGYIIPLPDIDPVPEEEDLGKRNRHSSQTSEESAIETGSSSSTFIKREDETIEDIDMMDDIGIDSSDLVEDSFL
- test: PDGFR kinase assay, Caliper microfluidic mobility shift
- Type: biochemical
- condition.label: compound at 1 µM; averages of two separate experiments
experimental.endpoint: Inhibition effect (%) PDGFRα

Record excerpt, results attached:
{"compound": "Cc1ccc(NC(=O)c2cccs2)cc1Oc1nccc(-c2cccc3ccccc23)n1 [C5]", "measurement.units": "%", "reported.result": 16.27}
{"compound": "Cc1ccc(NC(=O)c2ccco2)cc1Oc1nccc(-c2cc3ccccc3n2C)n1 [F3]", "measurement.units": "%", "reported.result": 24.14}
{"compound": "Cc1ccc(NC(=O)c2ccc(Cl)cc2)cc1Oc1nccc(-c2cccc3ccccc23)n1 [C6]", "measurement.units": "%", "reported.result": 24.14}
{"compound": "Cc1ccc(NC(=O)c2cccc(Cl)c2)cc1Oc1nccc(-c2ccccc2)n1 [B7]", "measurement.units": "%", "reported.result": 31.49}
{"compound": "Cc1ccc(NC(=O)c2ccccc2)cc1Oc1nccc(-c2ccco2)n1 [D1]", "measurement.units": "%", "reported.result": 13.74}
{"compound": "Cc1ccc(NC(=O)c2ccc([N+](=O)[O-])cc2)cc1Oc1nccc(-c2ccccc2)n1 [B8]", "measurement.units": "%", "reported.result": 26.17}
{"compound": "Cc1ccc(NC(=O)c2ccncc2)cc1Oc1nccc(-c2cccnc2)n1 [A12]", "measurement.units": "%", "reported.result": 43.17}

[P] COc1ccc(C(=O)Nc2ccc(C)c(Oc3nccc(-c4ccccc4)n3)c2)cc1 [B5]
[Q] Cc1ccc(NC(=O)c2ccoc2)cc1Oc1nccc(-c2cccc3ccccc23)n1 [C4]
Inquiry: Lab note: check whether P or Q has the lower measured Inhibition effect (%) PDGFRα. State your choice using its label.
Reply text: P
(P: 1.81%, Q: 13.73%)

----------
- System: HepG2 cells
- test: MTT cell viability assay
- Type: cell-based
- condition.label: Homo sapiens, HepG2, 72 h, 72 h
experimental.endpoint: pIC50
Recall that pIC50 is obtained by taking minus log10 of the concentration measured in molar.

Inquiry: Could you tell me which pIC50 is on file for Cc1ccc(NC(=O)c2ccc(CN3CCN(C)CC3)cc2)cc1Oc1nccc(-c2cc3ccccc3o2)n1 [E5] ?
Reply text: 5.33

----------
pIC50 reference
- System: QGY-7703
- test: CellTiter-Glo luminescent cell viability assay
- Type: cell-based
- condition.label: 120 h incubation, read-out: Anti-proliferative activity IC50 QGY-7703
Recall that pIC50 is obtained by taking minus log10 of the concentration measured in molar.

Sample answers from the record:
{"compound": "Cc1ccc(NC(=O)c2cccc([N+](=O)[O-])c2)cc1Oc1nccc(-c2ccccc2)n1 [B9]", "reported.result": 4.72}
{"compound": "Cc1ccc(NC(=O)c2ccncc2)cc1Oc1nccc(-c2ccccc2)n1 [B12]", "reported.result": 4.56}
{"compound": "Cc1ccc(NC(=O)CN2CCN(C)CC2)cc1Oc1nccc(-c2cc3ccccc3o2)n1 [E6]", "reported.result": 4.53}
{"compound": "Cc1cccc(C(=O)Nc2ccc(C)c(Oc3nccc(-c4cccnc4)n3)c2)c1 [A4]", "reported.result": 4.40}
{"compound": "Cc1ccc(NC(=O)CN2CCOCC2)cc1Oc1nccc(-c2cc3ccccc3o2)n1 [E7]", "reported.result": 4.99}

Moving on to another compound below.
Inquiry: Query pIC50 on QGY-7703 for Cc1ccc(NC(=O)c2ccco2)cc1Oc1nccc(-c2cc3ccccc3o2)n1 [E3]
Reply text: 6.15

----------
- target.entity: UniProt:P16234
- test: PDGFR kinase assay, Caliper microfluidic mobility shift
- Type: biochemical
- condition.label: compound at 1 µM; averages of two separate experiments
experimental.endpoint: Inhibition effect (%) PDGFRα

{"compound": "Cc1ccc(NC(=O)c2ccncc2)cc1Oc1nccc(-c2ccccc2)n1 [B12]", "Inhibition effect (%) PDGFRα": 25.66}
{"compound": "Cc1ccc(NC(=O)c2cccc(Cl)c2)cc1Oc1nccc(-c2ccco2)n1 [D5]", "Inhibition effect (%) PDGFRα": 51.79}
{"compound": "CCC(=O)Nc1ccc(C)c(Oc2nccc(-c3cc4ccccc4o3)n2)c1 [E2]", "Inhibition effect (%) PDGFRα": 19.06}
{"compound": "Cc1ccc(NC(=O)Cc2ccccc2)cc1Oc1nccc(-c2ccccc2)n1 [B2]", "Inhibition effect (%) PDGFRα": 21.09}
{"compound": "CCC(=O)Nc1ccc(C)c(Oc2nccc(-c3cc4ccccc4n3C)n2)c1 [F2]", "Inhibition effect (%) PDGFRα": 12.21}
{"compound": "CC(=O)Nc1ccc(C)c(Oc2nccc(-c3cc4ccccc4o3)n2)c1 [E1]", "Inhibition effect (%) PDGFRα": 1.56}
{"compound": "CC(=O)Nc1ccc(C)c(Oc2nccc(-c3cc4ccccc4n3C)n2)c1 [F1]", "Inhibition effect (%) PDGFRα": 6.37}
{"compound": "Cc1ccc(NC(=O)c2ccccc2)cc1Oc1nccc(-c2ccccc2)n1 [B1]", "Inhibition effect (%) PDGFRα": 2.32}
{"compound": "CC(=O)Nc1ccc(C)c(Oc2nccc(-c3cccc4ccccc34)n2)c1 [C1]", "Inhibition effect (%) PDGFRα": 33.27}
{"compound": "Cc1ccc(NC(=O)c2cccnc2)cc1Oc1nccc(-c2ccccc2)n1 [B11]", "Inhibition effect (%) PDGFRα": 32.00}

[P] Cc1ccc(NC(=O)CO)cc1Oc1nccc(-c2cc3ccccc3o2)n1 [E8]
[Q] Cc1ccc(NC(=O)c2ccc(F)cc2)cc1Oc1nccc(-c2cccnc2)n1 [A10]
[R] Cc1ccc(NC(=O)c2ccco2)cc1Oc1nccc(-c2cc3ccccc3o2)n1 [E3]
Inquiry: Hey, quick one: sort these by Inhibition effect (%) PDGFRα, largest value first please. The labels, placed in the requested order, form the answer.
Reply text: Q, P, R
(Q: 40.63%, P: 26.16%, R: -2.00%)

[a] COc1ccc(C(=O)Nc2ccc(C)c(Oc3nccc(-c4ccco4)n3)c2)cc1 [D3]
[b] Cc1ccc(NC(=O)c2ccc(Cl)cc2)cc1Oc1nccc(-c2ccco2)n1 [D6]
Inquiry: Please indicate which has the smaller reported Inhibition effect (%) PDGFRα: a , or b . Mark your selection by writing its label.
Reply text: a

[A] Cc1cccc(C(=O)Nc2ccc(C)c(Oc3nccc(-c4ccco4)n3)c2)c1 [D4]
[B] Cc1ccc(NC(=O)c2cccc([N+](=O)[O-])c2)cc1Oc1nccc(-c2ccccc2)n1 [B9]
Inquiry: Consider entries A and B . Which has the numerically lower Inhibition effect (%) PDGFRα? Kindly give the label for the entry you pick.
Reply text: B

[A] COc1ccc(C(=O)Nc2ccc(C)c(Oc3nccc(-c4cccnc4)n3)c2)cc1 [A5]
[B] Cc1ccc(NC(=O)c2ccoc2)cc1Oc1nccc(-c2cc3ccccc3o2)n1 [E4]
[C] Cc1ccc(NC(=O)CN2CCOCC2)cc1Oc1nccc(-c2cc3ccccc3o2)n1 [E7]
Inquiry: # desc sort on Inhibition effect (%) PDGFRα across 3 compounds Answer by naming the labels in the order asked.
Reply text: A, B, C
(A: 45.20%, B: 27.18%, C: 18.56%)

----------
- target.entity: Raf-1 (Homo sapiens, UniProt P04049)
- Sequence (P04049 whole entry, species assumed): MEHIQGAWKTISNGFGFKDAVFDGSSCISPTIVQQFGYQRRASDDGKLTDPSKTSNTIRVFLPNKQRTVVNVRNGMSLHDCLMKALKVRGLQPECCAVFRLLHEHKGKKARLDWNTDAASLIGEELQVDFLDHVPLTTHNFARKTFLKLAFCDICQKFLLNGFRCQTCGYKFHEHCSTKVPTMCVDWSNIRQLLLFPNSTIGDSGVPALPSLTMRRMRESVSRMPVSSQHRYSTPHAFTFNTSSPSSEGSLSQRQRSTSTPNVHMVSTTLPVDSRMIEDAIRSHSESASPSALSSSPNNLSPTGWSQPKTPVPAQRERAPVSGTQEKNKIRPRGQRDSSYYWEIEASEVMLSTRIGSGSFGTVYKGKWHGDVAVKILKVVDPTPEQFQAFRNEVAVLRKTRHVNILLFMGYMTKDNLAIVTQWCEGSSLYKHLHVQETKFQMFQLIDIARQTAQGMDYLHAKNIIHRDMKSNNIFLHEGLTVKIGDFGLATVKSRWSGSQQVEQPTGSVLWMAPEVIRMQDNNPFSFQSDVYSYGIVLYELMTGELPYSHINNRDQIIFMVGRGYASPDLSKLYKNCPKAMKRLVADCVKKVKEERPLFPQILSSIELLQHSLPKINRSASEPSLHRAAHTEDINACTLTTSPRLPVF
pIC50: −log10 of the molar value.
experimental.endpoint: pIC50

Inquiry: # value lookup — system Raf-1 (Homo sapiens, UniProt P04049), readout pIC50, item Cc1ccc(NC(=O)c2ccc(CN3CCN(C)CC3)cc2)cc1Oc1nccc(-c2cc3ccccc3o2)n1 [E5]
Reply text: < 4.60

----------
Attribute: pIC50
- System: QGY-7703
- test: CellTiter-Glo luminescent cell viability assay
- Assay type: cell-based
- condition.label: 120 h incubation, read-out: Anti-proliferative activity IC50 QGY-7703
Value format note: pIC50 is -log10 of concentration (mol/L); just state the number.

Known results for compounds:
{"compound": "Cc1ccc(NC(=O)c2cccc([N+](=O)[O-])c2)cc1Oc1nccc(-c2cccnc2)n1", "pIC50": 4.32}
{"compound": "Cc1ccc(NC(=O)c2cccc(Cl)c2)cc1Oc1nccc(-c2ccco2)n1", "pIC50": 4.65}
{"compound": "Cc1ccc(NC(=O)c2ccc([N+](=O)[O-])cc2)cc1Oc1nccc(-c2ccccc2)n1", "pIC50": 4.84}

Inquiry: # query: pIC50 of entry CC(=O)Nc1ccc(C)c(Oc2nccc(-c3cc4ccccc4o3)n2)c1 [E1]
Reply text: 6.52

Inquiry: Sample `Cc1ccc(C(=O)Nc2ccc(C)c(Oc3nccc(-c4ccccc4)n3)c2)cc1` — what was its pIC50?
Reply text: 5.14

Inquiry: Which pIC50 is reported for this compound? Cc1ccc(NC(=O)Cc2ccccc2)cc1Oc1nccc(-c2ccco2)n1 [D2]
Reply text: 4.37

Inquiry: Need pIC50 of `Cc1ccc(NC(=O)c2ccc(Cl)cc2)cc1Oc1nccc(-c2ccccc2)n1` , thanks.
Reply text: 4.81

Inquiry: // returns reported pIC50 for input `Cc1ccc(NC(=O)Cc2ccccc2)cc1Oc1nccc(-c2cccnc2)n1`
Reply text: 4.22

Inquiry: Bench note: what pIC50 did `Cc1ccc(NC(=O)c2ccc(Cl)cc2)cc1Oc1nccc(-c2cccc3ccccc23)n1` show?
Reply text: 4.72
